Tested target: T1, GIP receptor (GIPR) (UniProt P48546 22-466, limits assumed)
T1 sequence (looked up): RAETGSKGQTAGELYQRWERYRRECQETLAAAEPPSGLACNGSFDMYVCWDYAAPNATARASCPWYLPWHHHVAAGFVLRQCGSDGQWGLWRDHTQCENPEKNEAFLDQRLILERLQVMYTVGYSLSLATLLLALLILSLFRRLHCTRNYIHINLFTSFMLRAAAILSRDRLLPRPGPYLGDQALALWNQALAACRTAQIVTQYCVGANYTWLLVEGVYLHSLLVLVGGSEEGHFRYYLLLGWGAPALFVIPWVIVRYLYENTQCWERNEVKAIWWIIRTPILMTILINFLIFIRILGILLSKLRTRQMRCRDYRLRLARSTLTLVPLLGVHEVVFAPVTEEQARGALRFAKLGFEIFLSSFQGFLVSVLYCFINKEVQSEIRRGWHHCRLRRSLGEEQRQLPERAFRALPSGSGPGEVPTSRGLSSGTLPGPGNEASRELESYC
Test description: cell-based or functional assay
Bridge positions count the residues as written; N and C are the ends. Square brackets hold non-standard residues; d marks the D form. Ends that are not written are not given here. stapled body chem0215 = not defined here; αMeL = CC(C)C[C@](C)(N)C(=O)O; Orn = NCCC[C@H](N)C(=O)O; Aib = CC(C)(N)C(=O)O
Measurement label: GIP-1 EC50 (nM); cAMP, agonistic activity

Binder | Measurement
Y[Aib]QGTFTSDYSI[αMeL]LDKKAQ[Aib][Orn]FIEYLLEGGPSSGAPPPS-NH2 (linker 17-21 via stapled body chem0215; reading uncertain; also: further groups not given here) [Example 17] | 0.0001 nM
Y[Aib]QGTFTSDYSK[αMeL]LDKKAQ[Aib]AFIEFLLEGGPSSGAPPPS-NH2 (linker 12-16 via Ida, Lys, Lys, γGlu, C20 diacid; also: further groups not given here) [Example 28] | 0.0008 nM
Y[Aib]QGTFTSDYSI[αMeL]LDKKAQ[Aib]KFIEFLLEGGPSSGAPPPS-NH2 (linker 17-21 via Ida, Lys, Lys, γGlu, C20 diacid) [Example 22] | 0.0004 nM
Y[Aib]QGTFTSDYSI[αMeL]LDKKAQ[Aib]KFIEYLLEGGPSSGAPPPS-NH2 (linker 17-21 via (2-2-oxoethyl)‑glycine, AEEA, AEEA, γGlu, C20 diacid) [Example 1] | 0.001 nM
Y[Aib]QGTFTSDYSI[αMeL]KDKKAQ[Aib]AFIEYLLKGGPSSGAPPPS-NH2 (bridge 14-17; not fully specified (bridges); also: stapled body (lipidated) structure only in drawing chem0263) [Example 54] | 0.0004 nM
Y[Aib]QGTFTSDYSI[αMeL]LDKKAQ[Aib]KFIEYLLEGGPSSGAPPPS-NH2 (linker 17-21 via Glu, AEEA, AEEA, γGlu, C20 diacid) [Example 12] | 0.0001 nM
Y[Aib]QGTFTSDYSI[αMeL]KDKKAQ[Aib]AFIEYLLEGGPSSGAPPPS-NH2 (bridge 14-17; not fully specified (bridges); also: stapled body (lipidated) structure only in drawing chem0251) [Example 45] | 0.0001 nM
